System: PC-3 prostate
METHOD_NOTES: NCI tumour cell line growth inhibition, 48 h
GI50 for assorted compounds
QUANTITY: GI50

> print(dat)
                                    compound  value.measured
 1  C[C@H](NC(=O)[C@@H]1CSSC[C@@H](NC(=O)c2nc3ccccc3cc2O)C(=O)NCC(=O)N1C)c1ccccc1         5980 nM
 2     Oc1ccc(C(c2ccc(O)cc2)c2ccc(Cl)cn2)cc1          194 nM
 3               COc1ccccc1/C=C/[N+](=O)[O-]         2410 nM
 4  COc1ccc(N2Cc3cnc(Nc4ccccc4)nc3N([C@@H]3CC[C@@H](O)C3)C2=O)cc1         6930 nM
 5  COc1ccc(-c2cc(=O)c3c(C)cc(C)nc3[nH]2)cc1        23900 nM
 6  O=[N+]([O-])c1ccc(S(=O)Cc2ccccc2)c([N+](=O)[O-])c1 (stereo not given)        14600 nM
 7        COc1cc(/C=C\c2ccc(C)cc2)cc(OC)c1OC         17.3 nM
 8  CCCC(=O)Nc1cc(C(=O)N2C[C@@H]3C[C@]34C2=CC(=O)c2[nH]cc(C)c24)n(COC)c1         2860 nM
 9  COc1cc2c(c(OC)c1OC)-c1ccc(N)c(=O)cc1[C@@H](NC(C)=O)CC2         35.4 nM
10  O=Nc1c(-c2c(O)[nH]c3ccc([N+](=O)[O-])cc23)[nH]c2ccc(O)cc12          394 nM
11  CCc1n(Cc2ccc3ccccc3n2)cc[n+]1Cc1ccc2ccccc2n1          163 nM
12  O=C1c2ccc([N+](=O)[O-])cc2-c2c1c1ccccc1c(=O)n2CCCNCCCNCCCn1c2c(c3ccc([N+](=O)[O-])cc3c1=O)C(=O)c1ccccc1-2         3310 nM
13  Cc1cc(/C=C\c2ccc3ccccc3[n+]2C)c(O)c2ncccc12          855 nM
14  C=C1SC(=Nc2c(C)cc(C)cc2C)N(C(=O)c2sc3ccccc3c2Cl)C12CCCCC2        22300 nM
15  Cc1ccc(S(=O)(=O)NCCNC2=CC(=O)c3nc4ccccc4c4ccnc2c34)cc1        16000 nM

----------
System: SR leukemia
METHOD_NOTES: NCI tumour cell line growth inhibition, 48 h
GI50 for assorted compounds
QUANTITY: GI50

> print(dat)
                                   compound  value.measured
1  C=CCN(/C=C1/C(=O)O[C@H](COC)[C@@]2(C)C1=C(O)C(=O)C1=C2[C@H](OC(C)=O)C[C@]2(C)C(=O)CC[C@@H]12)CC=C        0.708 µM
2  CCC(=O)O[C@H]1CC[C@H]2[C@@H]3CC[C@H]4CC(=O)[C@H](C)C[C@]4(C)[C@H]3CC[C@]12C         3.21 µM
3  COc1ccc(Nc2ncc(Br)c(NCCCNC(=O)C3CCC3)n2)cc1         4.34 µM
4  COc1ccc(C2SCC(=O)N2NC(=O)C(O)c2ccccc2)cc1OC (stereo not drawn)         40.9 µM
5               COc1ccccc1/C=C/[N+](=O)[O-]        0.886 µM
6  FC(F)(F)c1cc(-c2nnc3n2N=C(N2CCCC2)CS3)cc(C(F)(F)F)c1         48.8 µM
7  O=C(/C=C/C12c3ccccc3C(c3ccccc31)C1C(=O)N(c3ccccc3)C(=O)C12)c1ccccc1 (stereo not drawn)         2.02 µM
8         Cc1ccc(/C(=N\N=C(N)N)c2ccccc2)cc1         1.83 µM
